Target: RSV postfusion F (postF), F ΔFP (Respiratory syncytial virus, UniProt P03420 26-513)
Assay: BLI, IgG on anti-human IgG sensor, 100 nM antigen
Give measured Kd for each item. Keep answers brief.

State its Kd for this binder: ADI-41664 (antibody, V domains shown, also called Ab 890; Antibody Number 890) VH: EVQLVQSGDEVKKPGASVKVSCKASGYPFSTYGISWVRQAPGQGLEWMGWIGVYTGGTNYAQKFQGRVTLTTDTSTSTAYMELRSLRSDDTAVYYCARGTGSYMTATYFDYWGQGTLVTVSS VL: SYELTQPPSVSVAPGQTARITCGGNNIGSKAVHWYQQKPGQAPVLVVYDDYDRPSGIPERFSGSNSGNTATLTISRVEAGDEADYYCQVWDSSSDYVFGTGTKLTVL
0.825 nM

Identify measured Kd corresponding to ADI-41626 (antibody, V domains shown) VH: EVQLQESGPGLVKPSGTLSLTCAVAGGFISSGNWWSWIRQPPGKGLEWIGEVYHSGRTSYNPSLKSRVTISVDNSKNQFSLKMSSVTAADTAVYYCARVESYSSSGYYIAYFDNWGQGNLVTVSS VL: DIVLTQSPSSLSASVGDRVTITCRASQSISRYLSWYQQKPGKAPKLLIYAAFSLQTGVPSRFSGSGSGTDFTLTISSFQTEDSATYYCQQSYSAPVTFGGGTKVEIK
0.891 nM

Input ADI-41804 (antibody, V domains shown) VH: QVQLQQWGAGLLKPSETLSLTCSVLGGSFSGYYWTWIRQPPGKGLEWIGEITHDGSSNYNPSLNSRVTISVDTSNYQFSLKMRSVTAADTAVYYCARSPDLTIFGGLYFYYGISVWGQGTTVTVSS VL: DIQMTQSPSSLSASMGDRVTITCRASQDISNYLAWYQQKPGKVPNLLIYAASTLQGGVPSRFSGSGSGTDFTLTISSLQPEDVAIYYCQKYKSAPRTFGQGTKVEIK , output reported Kd.
0.436 nM
